Ref: patent US12459951B2

Target: Rac-1 (Homo sapiens, UniProt P63000)
Construct: made in house
Experiment: Ras GTP Binding Domain Inhibition Assay (Ras Superfamily Assay)
Conditions: read-out: Rac-1: % inh.
MEASURED ATTRIBUTE: inhibition at 20 µM

Exercise: Form: Entry = COc1cc(Nc2nc(-c3nccn3C)nn3cc(-c4ccn(C)n4)c(C)c23)ncc1C1CC1 [Compound 238] | System = Rac-1 (Homo sapiens, UniProt P63000) | inhibition at 20 µM = ____
Solution: 76 to 100%

Exercise: Then CO[C@@H]1C[C@H]1Nc1nc(-c2nccn2C)nn2cc(-c3ccncc3)c(-c3ccccc3)c12 (racemic) [Compound 197] ?
Solution: 1 to 25%

Exercise: Then COc1cc(Nc2nc(-c3nccn3C)nn3cc(-c4ccn(C(C)C)n4)c(C)c23)ncn1 [Compound 6] ?
Solution: 50 to 75%

Exercise: Then COc1cc(Nc2nc(-c3nccn3C)nn3cc(-c4ccn(C)n4)c(C)c23)ncc1F [Compound 237] ?
Solution: 76 to 100%

Exercise: Then COCCNc1nc(-c2nccn2C)nn2cc(-c3cccnc3)c(-c3ccccc3)c12 [Compound 195] ?
Solution: 1 to 25%

Exercise: Then CO[C@H]1CC[C@H](Nc2nc(-c3nccn3C)nn3cc(-c4cccnc4)c(-c4ccccc4)c23)C1 (racemic) [Compound 194] ?
Solution: 1 to 25%

# input for lookup
Exercise: Form: Entry = COc1ccnc(Nc2nc(-c3nccn3C)nn3cc(-c4ccn(C(F)F)n4)c(C)c23)n1 [Compound 95] | System = Rac-1 (Homo sapiens, UniProt P63000) | inhibition at 20 µM = ____
Solution: 76 to 100%
